B1: glmS ribozyme (parent)
chain: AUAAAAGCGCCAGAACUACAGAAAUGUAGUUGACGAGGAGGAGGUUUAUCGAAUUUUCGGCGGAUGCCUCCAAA

# Variants of: B1
# protocol_summary: self-cleavage kobs at 2500 uM GlcN6P; higher = faster cleavage; RNA array
# details: with glucosamine-6-phosphate
Variants at the floor of the assay were thinned out.
quantity_kind: self-cleavage kobs at 2500 uM GlcN6P

mutant_designation | meas_value
U31C A39G | 0.00524 s⁻¹
A12C G66C C70A | 0.00011 s⁻¹
G29C U30C G38C G44A A48C U55G | < 1e-05 s⁻¹

The reported self-cleavage kobs at 2500 uM GlcN6P of the variant G9A C61A A64U C67A was < 1e-05 s⁻¹

The reported self-cleavage kobs at 2500 uM GlcN6P of the variant A12U C67G C70U was 0.000623 s⁻¹

The reported self-cleavage kobs at 2500 uM GlcN6P of the variant G7A C8A U56G was < 1e-05 s⁻¹
